system: CCRF-CEM leukemia; experiment: NCI tumour cell line growth inhibition, 48 h; in the data active means GI50 below about 0.43 µM; inactive means the rest
Allowed answers: active, inactive

Check out these entries, answers already filled in.
Data request: Test call for this compound, please: CC[C@@]1(O)C(=O)OCc2c1cc1n(c2=O)Cc2cc3c(NC(C)=O)c(O)ccc3nc2-1
Data returned: active

Data request: What was the test verdict on COc1cc(/C=C\c2cccnc2Nc2ccccc2)cc(OC)c1OC ?
Data returned: inactive

Data request: Query: recorded result category for CC(C)n1nc(C#Cc2cccc(NC(=O)c3cccc(C(F)(F)F)c3)c2)c2c(N)ncnc21 in this test
Data returned: inactive

Data request: Which outcome was assigned to O=[N+]([O-])O.[NH-]C1CCCCC1[NH-].[NH-]C1CCCCC1[NH-].[NH-]C1CCCCC1[NH-].[OH-].[OH-].[OH-].[Pt+4].[Pt+4].[Pt+4] (stereo not given) in this test?
Data returned: active

Others:
Data request: Please indicate how the test categorized C[C@H](NC(=O)CCC(F)(F)F)C(=O)N[C@@H]1C(=O)N(CCO)c2ncccc2-c2ccccc21 .
Data returned: inactive

All figures here come from PubChem BioAssay (NCI).
